Target: UniProt:Q07817
Kindly supply the reported IC50 values for the records listed here.

Q: Which IC50 reading was recorded for the compound O=C(NS(=O)(=O)c1ccc(COc2ccccc2)cc1)c1ccc(-c2ccc(Cl)cc2)cc1 ?
Result: 3.79 µM

Q: O=C(NS(=O)(=O)c1ccc(Oc2ccccc2)cc1)c1ccc(-c2ccc(F)cc2)cc1 ?
Result: 33.5 µM

Q: O=C(NS(=O)(=O)c1ccc(Oc2ccccc2)nc1)c1cccc(-c2cc(Cl)cc(Cl)c2)c1 ?
Result: 2.31 µM

Q: O=C(NS(=O)(=O)c1ccc(Oc2ccccc2)cc1)c1cccc(-c2ccccc2)c1 ?
Result: 28.5 µM

Q: O=C(NS(=O)(=O)c1ccc(Oc2ccccc2)cc1)c1ccc(-c2cc(Cl)cc(Cl)c2)cc1 ?
Result: 49.5 µM

Q: COc1ccc(-c2cccc(C(=O)NS(=O)(=O)c3ccc(Oc4ccccc4)cc3)c2)cc1OC ?
Result: > 1000 µM

Q: COc1ccccc1Oc1ccc(S(=O)(=O)NC(=O)c2cccc(-c3ccc(Cl)c(Cl)c3)c2)cc1 ?
Result: 3.76 µM

Q: O=C(NS(=O)(=O)c1ccc(COc2ccccc2)cc1)c1cccc(-c2cc(Cl)cc(Cl)c2)c1 ?
Result: 0.31 µM

Q: CCCCOc1ccc(S(=O)(=O)NC(=O)c2cccc(-c3ccc(Cl)c(Cl)c3)c2)cc1 ?
Result: 12.1 µM

---

Target: Induced myeloid leukemia cell differentiation protein Mcl-1 (Homo sapiens, UniProt Q07820)
Sequence (Q07820 whole entry): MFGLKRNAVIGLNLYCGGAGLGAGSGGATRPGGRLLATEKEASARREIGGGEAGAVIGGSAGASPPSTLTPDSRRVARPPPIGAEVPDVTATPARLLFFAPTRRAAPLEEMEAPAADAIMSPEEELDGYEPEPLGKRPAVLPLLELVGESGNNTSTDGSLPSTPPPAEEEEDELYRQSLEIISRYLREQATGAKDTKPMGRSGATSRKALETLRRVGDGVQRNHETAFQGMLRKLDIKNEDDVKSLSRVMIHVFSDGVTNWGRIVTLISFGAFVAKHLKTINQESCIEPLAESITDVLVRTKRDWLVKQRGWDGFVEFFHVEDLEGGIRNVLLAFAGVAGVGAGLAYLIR
Test: Displacement of FITC labeled Bak BH3 peptide from Mcl-1 after 2 mins by Fluorescence Polarization assay
Value Kind: log10 IC50 (log10 of the value in µM)
Heads up: the numbers are on a log10 scale; they represent IC50 in µM.

Q: Hi! What's the reported log10 IC50 for O=C(NS(=O)(=O)c1ccc(COc2ccccc2)cc1)c1ccc(-c2ccccc2)cc1 on Induced myeloid leukemia cell differentiation protein Mcl-1 (Homo sapiens, UniProt Q07820)?
Result: 1.64

Q: CCCCOc1ccc(S(=O)(=O)NC(=O)c2cccc(-c3ccc(Cl)c(Cl)c3)c2)cc1 ?
Result: 1.59

Q: O=C(NS(=O)(=O)c1ccc(COc2ccccc2)cc1)c1cccc(-c2ccc(Cl)c(Cl)c2)c1 ?
Result: 0.76

Q: O=C(NS(=O)(=O)c1ccc(OCC2CCCCC2)cc1)c1cccc(-c2ccc(Cl)c(Cl)c2)c1 ?
Result: -0.21

Q: O=C(NS(=O)(=O)c1ccc(COc2ccccc2)cc1)c1ccc(-c2ccc(Cl)cc2)cc1 ?
Result: 0.86

Q: O=C(NS(=O)(=O)c1ccc(COc2ccccc2)cc1)c1ccc(-c2cc(Cl)cc(Cl)c2)cc1 ?
Result: 0.40

Q: COc1ccc(-c2cccc(C(=O)NS(=O)(=O)c3ccc(Oc4ccccc4)cc3)c2)cc1OC ?
Result: 1.63

Q: O=C(NS(=O)(=O)c1ccc(COc2ccccc2)cc1)c1cccc(-c2ccccc2)c1 ?
Result: 1.40

Q: O=C(NS(=O)(=O)c1ccc(Oc2ccccc2)cc1)c1cccc(-c2cc(Cl)cc(Cl)c2)c1 ?
Result: 0.85

Q: O=C(NS(=O)(=O)c1ccc(Oc2ccccc2)cc1)c1ccc(-c2ccc(F)cc2)cc1 ?
Result: 1.25

Q: O=C(NS(=O)(=O)c1ccc(COc2ccccc2)cc1)c1ccc(-c2ccc(F)cc2)cc1 ?
Result: 1.22

Q: O=C(NS(=O)(=O)c1ccc(COc2ccccc2)cc1)c1cccc(-c2ccc(C(F)(F)F)cc2)c1 ?
Result: 0.92

Q: O=C(NS(=O)(=O)c1ccc(OCc2ccccc2)cc1)c1cccc(-c2cc(Cl)cc(Cl)c2)c1 ?
Result: -0.66

Q: O=C(NS(=O)(=O)c1ccc(Oc2ccc(F)cc2)cc1)c1cccc(-c2ccc(Cl)c(Cl)c2)c1 ?
Result: 0.59

Q: N#Cc1c(Cl)cccc1Oc1ccc(S(=O)(=O)NC(=O)c2cccc(-c3ccc(Cl)c(Cl)c3)c2)cc1 ?
Result: 0.50

Q: O=C(NS(=O)(=O)c1ccc(COc2ccccc2)cc1)c1cccc(-c2ccc(Cl)cc2Cl)c1 ?
Result: 0.94

Q: O=C(NS(=O)(=O)c1ccc(Oc2ccccc2)cc1)c1ccc(-c2cc(Cl)cc(Cl)c2)cc1 ?
Result: 0.71

Q: O=C(NS(=O)(=O)c1ccc2ccccc2c1)c1cccc(-c2ccc(Cl)c(Cl)c2)c1 ?
Result: 1.12

Q: O=C(NS(=O)(=O)c1ccc(OCc2ccccc2)cc1)c1cccc(-c2ccc(Cl)c(Cl)c2)c1 ?
Result: 0.69

Q: O=C(NS(=O)(=O)c1ccc(OCc2ccccc2)cc1)c1ccc(-c2cc(Cl)cc(Cl)c2)cc1 ?
Result: 0.80

Q: COc1ccccc1Oc1ccc(S(=O)(=O)NC(=O)c2cccc(-c3ccc(Cl)c(Cl)c3)c2)cc1 ?
Result: 0.82

Q: O=C(NS(=O)(=O)c1ccc(Oc2ccccc2)cc1)c1cccc(-c2cccc(Cl)c2Cl)c1 ?
Result: 0.68

Q: O=C(NS(=O)(=O)c1ccc(Oc2ccccc2)nc1)c1cccc(-c2cc(Cl)cc(Cl)c2)c1 ?
Result: 0.99

Q: O=C(NS(=O)(=O)c1ccc(Oc2ccccc2)cc1)c1cccc(-c2ccc(Cl)cc2Cl)c1 ?
Result: 0.57

Q: CCOc1ccc(Oc2ccc(S(=O)(=O)NC(=O)c3cccc(-c4ccc(Cl)c(Cl)c4)c3)cc2)cc1 ?
Result: -0.85

Q: O=C(NS(=O)(=O)c1ccc(Oc2cc(C(F)(F)F)cc(C(F)(F)F)c2)cc1)c1cccc(-c2ccc(Cl)c(Cl)c2)c1 ?
Result: 0.48

Q: O=C(NS(=O)(=O)c1ccc(Oc2ccccc2)cc1)c1cccc(-c2ccc(Cl)c(Cl)c2)c1 ?
Result: 0.39

Q: O=C(NS(=O)(=O)c1ccc(Oc2c(Cl)cccc2[N+](=O)[O-])cc1)c1cccc(-c2ccc(Cl)c(Cl)c2)c1 ?
Result: 0.48

Q: O=C(NS(=O)(=O)c1ccc(Oc2ccccc2)cc1)c1cccc(-c2ccccc2)c1 ?
Result: 0.51

Q: O=C(NS(=O)(=O)c1ccc(Oc2ccccc2)cc1)c1ccc(-c2ccccc2)cc1 ?
Result: 0.55

Q: O=C(NS(=O)(=O)c1ccc(COc2ccccc2)cc1)c1cccc(-c2cc(Cl)cc(Cl)c2)c1 ?
Result: 0.88

---

Dear all, this message contains pIC50 results, target or system Bcl-2-like protein 1 (Homo sapiens).
For clarity, pIC50 is expressed as the negative log10 of concentration in mol/L.

Q: Which pIC50 reading was recorded for the compound O=C(NS(=O)(=O)c1ccc(Oc2ccccc2)cc1)c1ccc(-c2ccccc2)cc1 ?
Result: 4.55

Q: O=C(NS(=O)(=O)c1ccc(OCc2ccccc2)cc1)c1cccc(-c2ccc(Cl)c(Cl)c2)c1 ?
Result: 5.53

Q: O=C(NS(=O)(=O)c1ccc(Oc2ccccc2)cc1)c1cccc(-c2cccc(Cl)c2Cl)c1 ?
Result: 5.39

Q: O=C(NS(=O)(=O)c1ccc(Oc2c(Cl)cccc2[N+](=O)[O-])cc1)c1cccc(-c2ccc(Cl)c(Cl)c2)c1 ?
Result: 5.70

Q: O=C(NS(=O)(=O)c1ccc(COc2ccccc2)cc1)c1ccc(-c2ccc(F)cc2)cc1 ?
Result: 5.03

Q: O=C(NS(=O)(=O)c1ccc(Oc2ccccc2)cc1)c1cccc(-c2ccc(Cl)c(Cl)c2)c1 ?
Result: 5.71

Q: O=C(NS(=O)(=O)c1ccc(COc2ccccc2)cc1)c1ccc(-c2ccccc2)cc1 ?
Result: 4.78

Q: O=C(NS(=O)(=O)c1ccc(Oc2ccc(F)cc2)cc1)c1cccc(-c2ccc(Cl)c(Cl)c2)c1 ?
Result: 5.54

Q: O=C(NS(=O)(=O)c1ccc(COc2ccccc2)cc1)c1ccccc1-c1ccccc1 ?
Result: 4.37

Q: O=C(NS(=O)(=O)c1ccc(-c2ccccc2)cc1)c1ccc(Oc2ccccc2)cc1 ?
Result: 3.79

Q: O=C(NS(=O)(=O)c1ccc(COc2ccccc2)cc1)c1cccc(-c2ccccc2)c1 ?
Result: 4.82

Q: O=C(NS(=O)(=O)c1ccc2ccccc2c1)c1cccc(-c2ccc(Cl)c(Cl)c2)c1 ?
Result: 4.96

Q: O=C(NS(=O)(=O)c1ccc(OCc2ccccc2)cc1)c1ccc(-c2cc(Cl)cc(Cl)c2)cc1 ?
Result: 5.50

Q: O=C(NS(=O)(=O)c1ccc(Oc2ccccc2)cc1)c1cccc(-c2cc(Cl)cc(Cl)c2)c1 ?
Result: 5.60

Q: O=C(NS(=O)(=O)c1ccc(OCC2CCCCC2)cc1)c1cccc(-c2ccc(Cl)c(Cl)c2)c1 ?
Result: 6.80

Q: O=C(NS(=O)(=O)c1ccc(COc2ccccc2)cc1)c1cccc(-c2ccc(Cl)cc2Cl)c1 ?
Result: 5.00

---

Dear all, this message contains pKd results, target or system Bcl-2-like protein 1 (Homo sapiens, UniProt Q07817).
For clarity, pKd is expressed as the negative log10 of concentration in mol/L.

Q: Which pKd reading was recorded for the molecule O=C(O)c1ccccc1N1CCCCC1 ?
Result: 3.42

Q: Oc1cccc2c1CCCC2 ?
Result: 2.37

Q: Nc1ncccc1OCc1ccccc1 ?
Result: 3.16

Q: O=C(O)c1ccc(-c2ccc(F)cc2)cc1 ?
Result: 3.52
